All figures here come from PubChem BioAssay (EPA / NIEHS).

- Read-out: growth arrest and DNA damage 45 (GADD45B), GADD45B (gene 4616)
- test: LTEA_HepaRG_GADD45B: Life Technologies and Expression Analysis (LTEA) Assay for growth arrest and DNA damage 45 (GADD45B) using HepaRG (AID 2283461)
- experimental.conditions: mRNA level, 48 h; actives raise or lower the signal
Activity calls are given as the source filed them. How the source made its calls: active means hit-call score of the fitted dose curve at least 0.9, where 1 is the maximum; inactive means score below 0.9.

>  <compound>
CC1=C(/C=C/C(C)=C/C=C/C(C)=C/CO)C(C)(C)CCC1

>  <AC50>
inactive

$$$$
>  <compound>
Cc1ccc(C)c(O)c1C

>  <AC50>
inactive

$$$$
>  <compound>
COc1ccc2c(c1)c(CC(=O)O)c(C)n2C(=O)c1ccc(Cl)cc1

>  <AC50>
inactive

$$$$
>  <compound>
COc1ccc(C)cc1N

>  <AC50>
inactive

$$$$
>  <compound>
COCCOC[C@H](CC1(C(=O)NC2CCC(C(=O)O)CC2)CCCC1)C(=O)Oc1ccc2c(c1)CCC2 (stereo partly drawn)

>  <AC50>
inactive

$$$$
>  <compound>
COc1cc(S(=O)(=O)O)c(C)cc1N=Nc1c(O)ccc2cc(S(=O)(=O)O)ccc12

>  <AC50>
inactive

$$$$
>  <compound>
CN[C@H]1CC[C@@H](c2ccc(Cl)c(Cl)c2)c2ccc(S(N)(=O)=O)cc21

>  <AC50>
80.4 µM (active)

$$$$
>  <compound>
Nc1ccc2c(c1)C(=O)c1ccccc1C2=O

>  <AC50>
9.75 µM (active)

$$$$
>  <compound>
FC(F)(F)C(F)(F)C(F)(F)C(F)(F)C(F)(F)C(F)(F)CCI

>  <AC50>
inactive

$$$$
>  <compound>
NCC1(Cc2noc(=O)[nH]2)CCCCC1

>  <AC50>
inactive

$$$$
>  <compound>
C1CCC(SSC2CCCCC2)CC1

>  <AC50>
inactive

$$$$
>  <compound>
Cc1ccc(C)c(C)c1

>  <AC50>
inactive

$$$$
>  <compound>
CC=Cc1ccc(O)c(OC)c1

>  <AC50>
inactive

$$$$

###

- Read-out: Collagen III, COL3A1 (gene 1281)
- test: BSK_hDFCGF_CollagenIII: BioMAP Diversity Plus: hDFCGF Assay for Collagen III Biomarker Activity (AID 2283056)
- experimental.conditions: primary human foreskin fibroblasts; actives raise or lower the signal
Calls of active or inactive are those of the source. The calls were made as follows: active = hit-call score of the fitted dose curve at least 0.9, where 1 is the maximum; inactive = score below 0.9.
Possible outcomes: active, inactive

>  <molecule>
CCCCCCCCCCCCCCCCCC(=O)O

>  <assigned.class>
inactive

$$$$
>  <molecule>
OC[C@@H](O)[C@@H](O)[C@H](O)[C@H](O)CO

>  <assigned.class>
inactive

$$$$
>  <molecule>
CCc1c(C(=O)NN2CCCCC2)nn(-c2ccc(Cl)cc2Cl)c1-c1ccc(Br)cc1

>  <assigned.class>
active

$$$$
>  <molecule>
CCCCCCCCCCCCCCCC

>  <assigned.class>
inactive

$$$$
>  <molecule>
Cc1nc(C)nc(N2C[C@@H](C)N(c3ccnc([C@@H](C)O)n3)[C@@H](C)C2)n1

>  <assigned.class>
inactive

$$$$
>  <molecule>
CCOc1ccc2c(c1)C(C)=CC(C)(C)N2

>  <assigned.class>
active

$$$$
>  <molecule>
Nc1ccccc1N

>  <assigned.class>
inactive

$$$$
>  <molecule>
O=C(O)CCCCC(=O)O

>  <assigned.class>
inactive

$$$$
>  <molecule>
Cc1oc(-c2ccccc2)nc1CCOc1cccc2c1ccn2CCC(=O)O

>  <assigned.class>
inactive

$$$$
>  <molecule>
CN1CCCC1=O

>  <assigned.class>
inactive

$$$$
>  <molecule>
Cc1cccc([N+](=O)[O-])c1C

>  <assigned.class>
inactive

$$$$
>  <molecule>
Oc1ccc2c(c1)OC[C@@H](N1CCC(O)(c3ccc(F)cc3)CC1)[C@H]2O

>  <assigned.class>
inactive

$$$$
>  <molecule>
C=CCOC(=O)c1ccccc1C(=O)OCC=C

>  <assigned.class>
inactive

$$$$
>  <molecule>
O=c1c(O)c(-c2ccc(O)c(O)c2)oc2cc(O)cc(O)c12

>  <assigned.class>
inactive

$$$$
>  <molecule>
Cc1cc(=O)[nH]c(=S)[nH]1

>  <assigned.class>
inactive

$$$$
>  <molecule>
Oc1ccc2ccccc2c1N=Nc1ccccc1

>  <assigned.class>
inactive

$$$$
>  <molecule>
C=CCc1ccc(O)c(OC)c1

>  <assigned.class>
inactive

$$$$
>  <molecule>
Cc1ccc(C)c(O)c1C

>  <assigned.class>
inactive

$$$$
>  <molecule>
CCCCCCCCCCO

>  <assigned.class>
inactive

$$$$
>  <molecule>
CC1(C)CC(N=C=O)CC(C)(CN=C=O)C1 (stereo not given)

>  <assigned.class>
inactive

$$$$

###

- Read-out: Alpha-fetoprotein (AFP) gene, AFP (gene 174)
- test: LTEA_HepaRG_AFP: Life Technologies and Expression Analysis (LTEA) Assay for Alpha-fetoprotein (AFP) gene using HepaRG (AID 2283472)
- experimental.conditions: mRNA level, 48 h; actives raise or lower the signal
Calls of active or inactive are those of the source. How the source made its calls: active means hit-call score of the fitted dose curve at least 0.9, where 1 is the maximum; inactive means score below 0.9.
Possible outcomes: 1 (yes) for active, 0 (no) for inactive

>  <compound.smiles>
C[C@]12C=CC(=O)C=C1CC[C@@H]1[C@@H]2C(=O)C[C@@]2(C)[C@H]1CC[C@]2(O)C(=O)CO

>  <assigned.class>
0 (no)

$$$$
>  <compound.smiles>
CCCCCCCCCCC

>  <assigned.class>
0 (no)

$$$$
>  <compound.smiles>
O=C(O)Cc1ccccc1Nc1c(Cl)cccc1Cl

>  <assigned.class>
1 (yes)

$$$$
>  <compound.smiles>
C=CCc1ccc(O)c(OC)c1

>  <assigned.class>
0 (no)

$$$$
>  <compound.smiles>
Cc1cc(=O)[nH]c(=S)[nH]1

>  <assigned.class>
0 (no)

$$$$
>  <compound.smiles>
Cc1ccc(Cl)cc1

>  <assigned.class>
0 (no)

$$$$
>  <compound.smiles>
Oc1ccc2c(c1)OC[C@@H](N1CCC(O)(c3ccc(F)cc3)CC1)[C@H]2O

>  <assigned.class>
0 (no)

$$$$
>  <compound.smiles>
O=C(OCCCCCOC(=O)c1ccccc1)c1ccccc1

>  <assigned.class>
1 (yes)

$$$$
>  <compound.smiles>
Oc1ccc2ccccc2c1N=Nc1ccccc1

>  <assigned.class>
1 (yes)

$$$$
>  <compound.smiles>
O=C(O)CCCCC(=O)O

>  <assigned.class>
0 (no)

$$$$
>  <compound.smiles>
Cc1ccc(C(C)C)c(O)c1

>  <assigned.class>
0 (no)

$$$$
>  <compound.smiles>
Nc1ccccc1N

>  <assigned.class>
1 (yes)

$$$$
>  <compound.smiles>
OC[C@@H](O)[C@@H](O)[C@H](O)[C@H](O)CO

>  <assigned.class>
0 (no)

$$$$
>  <compound.smiles>
Cc1ccccc1Cl

>  <assigned.class>
0 (no)

$$$$
>  <compound.smiles>
C=CCOC(=O)c1ccccc1C(=O)OCC=C

>  <assigned.class>
0 (no)

$$$$

###

- test: ATG_DR4_LXR_CIS: Attagene CIS-FACTORIAL HepG2 Assay for human Liver X Receptor (LXR), DR4 submotif (AID 2282929)
- experimental.conditions: HepG2 Attagene DR4 cis-reporter, mRNA transcription; actives raise or lower the signal
Active and inactive are the calls of the source. How the source made its calls: active means hit-call score of the fitted dose curve at least 0.9, where 1 is the maximum; inactive means score below 0.9.

>  <molecule>
COc1cc(-c2nc(NC(=O)c3cc4cc(C)cc(C)c4n3CC(=O)O)sc2CCC2CCCCC2)c(OC)cc1Cl

>  <AC50>
inactive

$$$$
>  <molecule>
Cc1cc(NC(=O)C(=O)O)cc(C)c1Oc1ccc(O)c2c1CCC2

>  <AC50>
156 µM (active)

$$$$
>  <molecule>
Cc1c(C(=O)O)c(O)cc2c1C(=O)c1c(O)c([C@@H]3O[C@H](CO)[C@@H](O)[C@H](O)[C@H]3O)c(O)c(O)c1C2=O

>  <AC50>
inactive

$$$$
>  <molecule>
C[Si]1(C)O[Si](C)(C)O[Si](C)(C)O[Si](C)(C)O1

>  <AC50>
49.6 µM (active)

$$$$
>  <molecule>
OC[C@@H](O)[C@@H](O)[C@H](O)[C@H](O)CO

>  <AC50>
inactive

$$$$
>  <molecule>
Cc1cccc(Nc2cc(Cl)nc(SCC(=O)O)n2)c1C

>  <AC50>
inactive

$$$$
>  <molecule>
CCCCCCCCCCCCCCCCCC(=O)O

>  <AC50>
inactive

$$$$
>  <molecule>
CC=Cc1ccc(O)c(OC)c1

>  <AC50>
inactive

$$$$
>  <molecule>
CC(CO)OC(C)CO (stereo not drawn) (tested in a mixture with another compound)

>  <AC50>
inactive

$$$$
>  <molecule>
Cc1nc(-c2ccc3c(c2)CCN(CCC2CCC(NC(=O)/C=C/c4ccc(F)cc4)CC2)CC3)no1 (stereo not drawn)

>  <AC50>
inactive

$$$$
>  <molecule>
COCCOC[C@H](CC1(C(=O)NC2CCC(C(=O)O)CC2)CCCC1)C(=O)Oc1ccc2c(c1)CCC2 (stereo partly drawn)

>  <AC50>
inactive

$$$$
>  <molecule>
O=C(O)Cc1ccccc1Nc1c(Cl)cccc1Cl

>  <AC50>
68.7 µM (active)

$$$$
>  <molecule>
Nc1ccccc1N

>  <AC50>
inactive

$$$$
